# Test system: HL-60(TB) leukemia
# experiment.notes: NCI-60 one-dose screen, 48 h
# assay.setup: 10 µM unless noted
Compounds without any hit were thinned out: in the full panel of roughly 83,000, 20% have a hit. Active and inactive are the calls of the source. How the source made its calls: active means growth percent below 10; inactive means the rest.
Reply using exactly one outcome from T = active, F = inactive

# molecule, cat
rows = [
    ("Cc1ccc(NC(=O)c2ccc(Nc3ncnc4c3cnn4-c3cccc(F)c3)cc2)cc1", "F"),
    ("CN(C)CCCNc1c2ccccc2nc2ccccc12", "F"),
    ("c1ccc2c(-c3c4ccsc4cc4[nH]c5ccccc5c34)c[nH]c2c1", "F"),
    ("Oc1c(I)cc(I)cc1CNCCN(Cc1ccccn1)Cc1ccccn1", "T"),
    ("O=C(Nc1ccc2ccccc2c1)c1cc2ccccc2cc1O", "F"),
]

Req: Which result was noted for this molecule in the test: O=C(CCc1nnc2sc(/C=C\c3ccccc3)nn12)c1nc2ccccc2[nH]1
Resp: F

Req: Now give it for COc1ccc(/C=C2\CCCC3=C2NC(N)=NC3c2ccc(OC)c(OC)c2)cc1OC (centres undefined) too.
Resp: F

Req: Record: NC(=O)c1cnc(Nc2cccc(N)c2)nc1NCCCNC(=O)C1CCC1
Resp: F

Req: Please do the same for Cc1ccc2cnc(N)c(C#Cc3cncc(C(=O)Nc4ccc(CN5CCN(C)CC5)c(C(F)(F)F)c4)c3)c2c1 as well.
Resp: T

Req: Also need c1c2c(cc3c1OCO3)Cc1cc3c(cc1Cc1cc4c(cc1C2)OCO4)OCO3 , thanks.
Resp: F

Req: Same for N[C@H](CS)C(=O)O
Resp: F

Req: Consider next the molecule Cc1ncc(C(=O)Nc2ccc(CN3CCN(C)CC3)c(C(F)(F)F)c2)cc1C#Cc1cncc2ncccc12 in the same way.
Resp: F

====

// values below are reported growth
# Tested on: HL-60(TB) leukemia
# experiment.notes: NCI-60 one-dose screen, 48 h (100 = growth as untreated, 0 = no growth, -100 = all killed)
# assay.setup: 10 µM unless noted
Compounds without any hit were thinned out: in the full panel of roughly 83,000, 20% have a hit.
Write it as a number; the unit % goes unstated.

Solved entries:
# compound, unit.abbrev, growth
rows = [
    ("Cc1cc(=O)oc2cc(Oc3nc(Br)cn4c(Br)cnc34)ccc12", "%", 30.8),
    ("O=C(NC1CCOCC1)c1ccc2c(c1)CN(c1ncc(Cc3cccc(-n4cccn4)c3)s1)CC2", "%", 68.7),
    ("Cc1cccc(-[n+]2noc(N)n2)c1", "%", 30.8),
    ("O=C1CC2C=CCN2C=C1NC(=O)C1CCCCC1 (stereo not drawn)", "%", 101),
    ("COC(=O)[C@@H]1[C@H](O)[C@H](C)[C@H](O)[C@@](C)(O)/C=C\\C=C(C)C(=O)Nc2c(C)c(OC(C)=O)c3c(c2O)C(=O)C(C)=C2OCOC(=C23)C(C)=C[C@@](C)(O)[C@H](O)[C@@H](C)[C@H]1OC(C)=O", "%", 71.2),
]

Req: Quick check: growth of CC(=O)OC[C@]12CC[C@@H]([C@@H](C)c3nnc(-c4ccncc4)o3)[C@@H]1[C@H]1CC[C@@H]3[C@@]4(C)CC[C@H](OC(C)=O)C(C)(C)[C@@H]4CC[C@@]3(C)[C@]1(C)CC2 ?
Resp: 61.1

Req: Also O=c1[nH]nc(-c2ccccc2)c2sc3ncc(-c4ccc(Br)cc4)n3c12 ?
Resp: 12.7

Req: Also O=C(CN1CCOCC1)Nc1ccc2ncnc(Nc3ccc(Oc4cccc(C(F)(F)F)c4)c(Cl)c3)c2c1 ?
Resp: 70.1

FYI, the data here is from PubChem BioAssay (NCI).
